The reported measurements were obtained from ChEMBL document CHEMBL3108699.

tested on: Pseudomonas aeruginosa; assay: Antimicrobial activity against Pseudomonas aeruginosa ATCC 27853 after 24 hrs by microbroth dilution method; type: functional; settings: ATCC 27853, 24 h, read-out: MIC100
outcome.measure: MIC

Example cases with answers are listed next.
{"columns": ["molecule", "MIC"],
 "data": [
  ["C=CCc1cc(/N=N/c2ccc(O)cc2)ccc1O", "> 60 µg/mL"],
  ["CCCc1cc(/N=N/c2ccc(O)cc2)ccc1O", "> 60 µg/mL"],
  ["Oc1ccc(/C=C/c2cc(O)cc(O)c2)cc1", "> 400 µg/mL"],
  ["C=CCc1cc(/N=N/c2ccc(O)cc2)cc(C)c1O", "> 60 µg/mL"],
  ["CCc1cc(/N=N/c2ccc(O)cc2)ccc1O", "> 60 µg/mL"]
]}

Proceeding to the next compound to report its MIC.
Lookup: # lookup: MIC of Cc1cc(/N=N/c2ccc(O)cc2)cc(C)c1O
Found: > 60 µg/mL

###

I'd appreciate it if you could supply MIC values for the items below.
tested on: Salmonella typhimurium; assay: Antimicrobial activity against Salmonella typhimurium after 24 hrs by microbroth dilution method; type: functional, Salmonella enterica subsp. enterica serovar Typhimurium; details: Salmonella enterica, read-out: MIC100

{"columns": ["compound", "endpoint.result"],
 "data": [
  ["C=CCc1cc(/N=N/c2ccc(O)cc2)cc(C)c1O", "> 60 µg/mL"],
  ["Cc1cc(/N=N/c2ccc(O)cc2)cc(C)c1O", "> 60 µg/mL"],
  ["Oc1ccc(/C=C/c2cc(O)cc(O)c2)cc1 [RESVERATROL]", "> 400 µg/mL"]
]}

Report MIC for every entry below.
1. C=CCc1cc(/N=N/c2ccc(O)cc2)ccc1O
2. CCCc1cc(/N=N/c2ccc(O)cc2)ccc1O
3. CCc1cc(/N=N/c2ccc(O)cc2)ccc1O

Found:
> 60 µg/mL
> 60 µg/mL
> 60 µg/mL

###

Exercise: for every item that follows, state its recorded MIC.
system: Candida albicans; assay: Antimicrobial activity against Candida albicans SC5314 after 24 hrs by microbroth dilution method; format: functional; conditions: SC5314, 24 h, read-out: MIC100
Answers are plain numbers, in µg/mL.

{"columns": ["molecule", "MIC [µg/mL]"],
 "data": [
  ["CCc1cc(/N=N/c2ccc(O)cc2)ccc1O", 30]
]}

Below is a list of compounds. For each, state its recorded MIC.
1. Cc1cc(/N=N/c2ccc(O)cc2)cc(C)c1O
2. CCCc1cc(/N=N/c2ccc(O)cc2)ccc1O
3. C=CCc1cc(/N=N/c2ccc(O)cc2)cc(C)c1O
4. C=CCc1cc(/N=N/c2ccc(O)cc2)ccc1O

Found:
1. 17
2. 20
3. 15
4. 20
